- target_desc: Arabidopsis thaliana SHMT
- assay_remarks: SHMT activity assay (ED50 SHMT), coupled with N5,N10-CH2-THF dehydrogenase, NADH at 340 nm
- Format: biochemical
- assay_conditions: Table 2, Arabidopsis thaliana SHMT enzyme assay; values given as upper bounds
pEC50: −log10 of the molar value.
Reported pEC50 is given for each of the following compounds.

compound	pEC50
Cc1n[nH]c2c1C(c1ccc(Cl)c(Cl)c1)(C1(F)CC1)C(C#N)=C(N)O2 (centres unmarked) [Compound 2.245]	> 8.00
Cc1n[nH]c2c1C(c1cc(Cl)cc(-c3nccs3)c1)(C1CCC1)C(C#N)=C(N)O2 (centres unmarked) [Compound 2.320]	> 8.00
N#CC1=C(N)Oc2[nH]ncc2C1(c1ccc(Cl)c(OC(F)(F)F)c1)C1CCC1 (centres unmarked) [Compound 2.290]	> 7.00
COc1ccc(C2(C3CCC3)C(C#N)=C(N)Oc3[nH]ncc32)cc1Br (centres unmarked) [Compound 2.255]	> 8.00
Cc1n[nH]c2c1C(c1cc(Cl)cc(Oc3cccc(Cl)c3)c1)(C1CCC1)C(C#N)=C(N)O2 (centres unmarked) [Compound 2.237]	> 8.00
N#CC1=C(N)Oc2[nH]ncc2C1(c1ccc(C(F)(F)F)c(C(F)(F)F)c1)C1CCC1 (centres unmarked) [Compound 2.302]	> 8.00
COc1ccc(C2(C3CCC3)C(C#N)=C(N)Oc3[nH]ncc32)cc1Cl (centres unmarked) [Compound 2.253]	> 8.00
Cc1n[nH]c2c1C(c1cc(Cl)cc(Oc3cccc(C(F)(F)F)c3)c1)(C1CCC1)C(C#N)=C(N)O2 (centres unmarked) [Compound 2.234]	> 8.00

###

- target_desc: Arabidopsis thaliana SHMT
- assay_remarks: SHMT activity assay (ED50 SHMT), coupled with N5,N10-CH2-THF dehydrogenase, NADH at 340 nm
- Assay type: biochemical
- assay_conditions: Table 2; values given as upper bounds
pEC50: −log10 of the molar value.
property_name: pEC50

molecule	target_desc	property_name	observed_measurement
CCC1(c2cc(Cl)cc(Cl)c2)C(C#N)=C(N)Oc2[nH]nc(C3CC3)c21 (stereo not shown)	Arabidopsis thaliana SHMT	pEC50	> 6.00
CCC1(c2cc(Oc3ccccc3)cc(C(F)(F)F)c2)C(C#N)=C(N)Oc2[nH]nc(C)c21 (stereo not shown)	Arabidopsis thaliana SHMT	pEC50	> 6.00
CCC1(c2ccc(OS(=O)(=O)C(C)C)c(C)c2)C(C#N)=C(N)Oc2[nH]nc(C)c21 (stereo not shown)	Arabidopsis thaliana SHMT	pEC50	> 6.00
COC(=O)c1cc(-c2cc(C#N)cc(C3(C4CCC4)C(C#N)=C(N)Oc4[nH]nc(C)c43)c2)ccc1C(=O)O (stereo not shown)	Arabidopsis thaliana SHMT	pEC50	> 7.00
Cc1n[nH]c2c1C(c1cc(Cl)cc(-c3ccccc3)c1)(C1CC1)C(C#N)=C(N)O2 (stereo not shown)	Arabidopsis thaliana SHMT	pEC50	> 7.00
CCCCC1(c2cccc(Cl)c2)C(C#N)=C(N)Oc2[nH]nc(C)c21 (racemic)	Arabidopsis thaliana SHMT	pEC50	> 5.00
Cc1n[nH]c2c1C(c1cc(C#N)cc(-c3ccc(C(=O)O)cc3)c1)(C1CCC1)C(C#N)=C(N)O2 (stereo not shown)	Arabidopsis thaliana SHMT	pEC50	> 8.00

###

- target_desc: Arabidopsis thaliana SHMT
- assay_remarks: SHMT activity assay (ED50 SHMT), coupled with N5,N10-CH2-THF dehydrogenase, NADH at 340 nm
- Format: biochemical
- assay_conditions: Table 2; values given as upper bounds
pEC50: −log10 of the molar value.
property_name: pEC50

molecule	property_name	observed_measurement
CCC1(c2ccc(OC)cc2)C(C#N)=C(N)Oc2[nH]nc(C)c21 (stereo not shown)	pEC50	> 6.00
CCc1n[nH]c2c1C(CC)(c1cc(Cl)cc(C#N)c1)C(C#N)=C(N)O2 (stereo not shown)	pEC50	> 7.00
COC(=O)CCc1cccc(-c2cc(C#N)cc(C3(C4CCC4)C(C#N)=C(N)Oc4[nH]nc(C)c43)c2)c1 (stereo not shown) [Compound 2.523]	pEC50	> 8.00
COc1ccc(C2(C3CCC3)C(C#N)=C(N)Oc3[nH]nc(C)c32)cc1Br (stereo not shown)	pEC50	> 8.00
